Just for reference, PubChem BioAssay AID431 is where these values come from.

# protocol-notes: viability loss of HPDE-C7K cells – cell-based, fluorescence, HTS, primary screen (AID 431);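 also: 0% = DMSO solvent wells and 100% = doxorubicin-treated wells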
# conditions: HPDE-C7K KRASV12 cells, Alamar Blue viability, 48 h; at 10 µM
Among all 63,000 compounds or so, about 1,100 (1.7%) were called active.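 The calls were made as follows: active = compounds whose percent cytotoxicity in the single-dose primary screen, scaled between solvent and toxic-drug controls, exceeds 50; inactive = the rest.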 The list comes from a sample in which actives are over-represented; it also holds close analogues and randomly drawn compounds. Potency and affinity values are given separately.
Possible outcomes: active, inactive

compound=O=C(Nc1nnc(-c2ccco2)o1)C1CCCCC1 assigned_category=inactive
compound=COc1ccc(NC(=O)N2CCCCC2)cc1 assigned_category=inactive
compound=COCCn1c(-c2ccc(Cl)cc2)cnc1SCC(=O)NCc1cccs1 assigned_category=inactive
compound=CCC(CC)C(=O)NCCc1cc2c(OC)ccc(OC)c2[nH]c1=O assigned_category=inactive
compound="O=C(CSc1n[nH]c(-c2ccncc2)n1)NC1CCS(=O)(=O)C1 (stereo unspecified)" assigned_category=inactive
compound=COc1ccc(CCNC(=O)c2c(O)c3cccc4c3n(c2=O)CC4)cc1OC assigned_category=inactive
compound=CCOC(=O)N1CCN(C(=O)c2ccccc2CCc2ccccc2)CC1 assigned_category=inactive
compound=COc1ccc(CNC(=O)c2cc(-n3cnnc3)ccc2Cl)cc1 assigned_category=inactive
compound=CCOC(=O)c1ccc(-n2c(N)c(C(=O)NCc3ccco3)sc2=S)cc1 assigned_category=inactive
compound="COc1ccc(C2C(C(=O)NCC3CCCO3)CCC(=O)N2c2ccc3c(c2)OCO3)cc1 (stereo unspecified)" assigned_category=inactive
compound=O=C(COC(=O)c1c2c(nc3ccccc13)CCCC2)Nc1ccc2c(c1)OCO2 assigned_category=active

----------
# protocol-notes: viability loss of HPDE-C7K cells – cell-based, fluorescence, HTS, primary screen (AID 431);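 also: 0% = DMSO solvent wells and 100% = doxorubicin-treated wells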
# conditions: HPDE-C7K KRASV12 cells, Alamar Blue viability, 48 h; at 10 µM; active compounds read high
Screen size: about 63,000 compounds; about 1,100 (1.7%) were called active. The sample holds actives, similar compounds and a random draw of the others, so the mix is not that of the screen. Results with a measured potency or affinity are listed apart.
property-measured: cytotoxicity (%)

compound=O=C(CSC1=NCCS1)NC1CCCCC1 property_measured=cytotoxicity measured=3.6
compound=COc1ccccc1C(=O)Nc1ccc(S(=O)(=O)Nc2cc(C)on2)cc1 property_measured=cytotoxicity measured=3.1
compound=CC(=O)NC1CCN(C(=O)N2CCCC2)CC1 property_measured=cytotoxicity measured=7.7
compound="Cc1ccc(C(=O)CC(C(=O)O)n2ccc(C)n2)cc1 (stereo unspecified)" property_measured=cytotoxicity measured=4.5
compound=Cc1ccc2c(COC(=O)c3cnc(C)cn3)cc(=O)oc2c1 property_measured=cytotoxicity measured=4.8
compound=Cc1ccc(/C(C#N)=C\c2cn(C)c3ccccc23)cc1 property_measured=cytotoxicity measured=35.2

----------
# protocol-notes: viability loss of HPDE-C7K cells – cell-based, fluorescence, HTS, primary screen (AID 431);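 also: 0% = DMSO solvent wells and 100% = doxorubicin-treated wells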
# conditions: HPDE-C7K KRASV12 cells, Alamar Blue viability, 48 h; at 10 µM; active compounds read high
Screen size: about 63,000 compounds; about 1,100 (1.7%) were called active. The sample holds actives, similar compounds and a random draw of the others, so the mix is not that of the screen. Measured potencies and affinities stand elsewhere.
property-measured: cytotoxicity (%)

record_smiles=O=C(Nc1ccc(-n2cnnn2)cc1)C1CCC1 measured=-4.6
record_smiles=CCCNc1cc(=O)n(C)c(=O)n1C measured=9.9
record_smiles=O=C(COn1nnc2ccc(Cl)cc21)NCc1ccccc1 measured=3.7
record_smiles=COCCCNC(=O)CS(=O)(=O)Cc1nc(-c2ccccc2C)oc1C measured=-5.9
record_smiles=CCNc1nc(NC(C)C)nc(N(C#N)Cc2ccccc2)n1 measured=3
record_smiles=CCOC(=O)C1=C(N2CCCCC2)c2cc3c(n2C1=O)CCCC3 measured=3.2
